Measured target: T1, 송아지 혈청 알부민(BSA) (bovine (printed: 송아지 혈청 알부민), UniProt P02769 25-607)
T1 construct: also called bovine serum albumin
T1 sequence (P02769 25-607 limits assumed): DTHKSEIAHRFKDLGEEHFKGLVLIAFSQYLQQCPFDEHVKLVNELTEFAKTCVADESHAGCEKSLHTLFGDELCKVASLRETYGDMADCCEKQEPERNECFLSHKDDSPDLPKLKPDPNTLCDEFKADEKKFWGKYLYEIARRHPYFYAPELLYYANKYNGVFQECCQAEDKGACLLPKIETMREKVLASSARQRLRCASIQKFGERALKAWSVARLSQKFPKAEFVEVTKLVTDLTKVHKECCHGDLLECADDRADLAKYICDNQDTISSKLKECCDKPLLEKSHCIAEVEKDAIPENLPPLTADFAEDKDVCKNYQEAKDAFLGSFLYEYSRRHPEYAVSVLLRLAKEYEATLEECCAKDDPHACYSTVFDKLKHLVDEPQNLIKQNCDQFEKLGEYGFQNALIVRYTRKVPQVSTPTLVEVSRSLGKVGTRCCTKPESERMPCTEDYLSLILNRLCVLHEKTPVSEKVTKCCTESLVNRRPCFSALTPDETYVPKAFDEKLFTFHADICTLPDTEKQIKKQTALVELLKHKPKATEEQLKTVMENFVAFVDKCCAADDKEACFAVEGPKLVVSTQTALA
Protocol text: phage ELISA, 1% BSA coated, anti-M13-peroxidase, absorbance 492 nm
Parameter measured: binding result

SC06-432 (scFv, single-chain phage antibody: the scFv stood on phage in the ELISA) scFv: QLQLQESGPGLVKPSQTLSLTCTVSGGSISSGGYYWSWIRQHPGKGLEWIGYIYYSGSTYYNPSLKSRVTISVDTSKNQFSLKLSSVTAADTAVYYCARERILDRMNDYWGQGTLVTVSSGTGGSGGTGSGTGGSTQSVVTQPPSVSGAPGQRVTISCTGSSSNIGAGYDVHWYQQLPGTAPKLLIYGNSNRPSGVPDRFSGSKSGTSASLAITGLQAEDEADYYCQSSDSSLNILFGGGTKLTVL = no binding
SC06-043 (scFv, single-chain phage antibody: the scFv stood on phage in the ELISA) scFv: EVQLVESGAEVKKPGESLKISCKGSGYSFTSYWIGWVRQMPGKGLEWMGIIYPGDSDTRYSPSFQGQVTISADKSISTAYLQWSSLKASDTAMYYCARRYCSGGTCSDGFDIWGQGTMVTVSSGTGGSGGTGSGTGGSTQSALTQPPSASGSPGQSVTISCTGTSSDVGGYNYVSWYQQHPGKAPKLMIYEVSKRPSGVPDRFSGSKSGNTASLTVSGLQAEDEADYYCSSYAGSNNLVFGGGTKLTVL = no binding
SC06-429 (scFv, single-chain phage antibody: the scFv stood on phage in the ELISA) scFv: QVQLVQSGAEVKNPGESLKISCKGSGYTFTSYWIGWVRQMPGKGLEWMGSIYPGDSDTRYSPSFQGQVTISVDKSISTAYLQWSSLKASDTAMYYCARQYRAGSTTRFDPWGQGTLVTVSSGTGGSGGTGSGTGGSTDVVMTQSPLSLPVTPGEPASISCRSSQSLRHRNGNNYLDWYLQKPGQSPQLLIYLGSNRASGVPDRFSGSGSGTDFTLKISRVEAEDVGIYYCMQALQTPLTFGGGTKVEIK = no binding

Hello, the source for this data is patent KR20160003317A, in case you need it.
